- RUN_DESCRIPTION: chemical genetic growth profiling, strain panel (AID 1159580);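 also: tested at 20 µM; growth read once vehicle control cultures reached saturation at 30 °C; 1 = growth at the plate median or of vehicle wells; lower values mean less growth of the strain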
- CONDITIONS_USED: S. cerevisiae deletion strains, growth OD, locus YLR418C, strain cdc73
Among all 5,500 compounds or so, about 2,000 (36%) were called active. Not shown: some 18% with an inconclusive outcome. Rule as the data show it: active = normalized growth mostly below about 0.91 (no sharp cut-off); inconclusive = no clear call, values can overlap the other calls; inactive = mostly above about 0.92. This is one part of the list.
Respond only with the outcome that fits, drawn from 1 (active), 0 (inactive)

Record request — test call for CC(=O)[O][Hg][c]1ccccc1
1

Record request — test call for CC(NCCC(c1ccccc1)c1ccccc1)c1ccccc1 (stereo not drawn)
0

Record request — test call for Cc1c(NC(=O)c2cccnc2)c(=O)n(-c2ccccc2)n1C
0

Data origin, for the record: PubChem BioAssay AID1159580
